- measurement.protocol: in vitro
- Assay type: in vitro ADME, mouse
- measurement.conditions: male, CD-1, mouse, plasma, fu, fraction unbound
assay.endpoint: fraction unbound at 4 h, 5 μM
# respond with the number and nothing more

Challenge: May I ask what fraction unbound at 4 h, 5 μM has been recorded for Cc1[nH]c(C(=O)Nc2nc3c(N4[C@@H]5CC[C@H]4COC5)cc(C(=O)O)cc3s2)c(Cl)c1Cl ?
Response given: 0.009

###

- Test system: E. coli ATCC 25922
- measurement.protocol: MIC broth microdilution (CLSI)
- Format: cell-based
- measurement.conditions: Escherichia coli, ATCC25922; read-out: MIC
Quick reference: MIC of the listed items.
Give the number; µg/mL is assumed, so skip it.

INSERT INTO measurements (molecule, units_text, reported_result) VALUES
  ('Cc1[nH]c(C(=O)Nc2nc3c(N4[C@@H]5CC[C@H]4COC5)cc(C(=O)O)cc3s2)c(Cl)c1Cl', 'µg/mL', 4);

Challenge: Sample Cc1[nH]c(C(=O)Nc2nc3c(N4CCNCC4)cc(C(=O)O)cc3s2)c(Cl)c1Cl.Cl — what was its MIC?
Response given: 16

Challenge: Need MIC, item Cc1[nH]c(C(=O)Nc2nc3c(N4C[C@H]5CC[C@@H](C4)O5)cc(C(=O)O)cc3s2)c(Cl)c1Cl
Response given: 2

Challenge: Name the recorded MIC for COCC1CCCN1c1cc(C(=O)O)cc2sc(NC(=O)c3[nH]c(C)c(Cl)c3Cl)nc12 (centres unmarked) .
Response given: 8

Challenge: Query (molecule): Cc1[nH]c(C(=O)Nc2nc3c(N4CCOC[C@H]4C)cc(C(=O)O)cc3s2)c(Cl)c1Cl ; field requested: MIC
Response given: 8
